I would appreciate it if you labelled entries MET when melting point is 100 °C or higher, otherwise NOT MET.

Sample answers from the record:
MOLECULE	QUALITATIVE LABEL
O=C(c1ccc(F)cc1)N1CCc2nc(COc3cccc(C(F)(F)F)c3)oc2C1 [Example B127]	NOT MET
O=C(c1ccccc1)N1CCc2nc(COc3cccc(F)c3)oc2C1 [Example B26]	MET
O=C(c1cccc(F)c1)N1CCc2nc(COc3cccc(F)c3)oc2C1 [Example B27]	NOT MET
N#Cc1ccc(C(=O)N2CCc3nc(COc4ccccc4)oc3C2)cc1 [Example B49]	MET
N#Cc1cccc(C(=O)N2CCc3nc(COc4ccccc4)oc3C2)c1 [Example B43]	MET

Please check the record O=C(c1cccc(F)c1)N1CCc2nc(COc3ccccc3)oc2C1 [Example B7] and state if its melting point is at or above 100 °C.
NOT MET

Is melting point for O=C(c1ccc(OC(F)(F)F)cc1)N1CCc2nc(COc3ccccc3)oc2C1 [Example B75] at or above 100 °C?
MET

Dear colleague, could you confirm whether O=C(c1ccc2[nH]cnc2c1)N1CCc2nc(COc3ccccc3)oc2C1 [Example B156] has melting point at or above 100 °C?
MET

Test whether the molecule O=C(c1ccc(F)nc1)N1CCc2nc(COc3ccccc3)oc2C1 [Example B94] records melting point of 100 °C or higher.
MET

###

- TARGET OR TEST SYSTEM: human mGluR5 (Homo sapiens)
- Sequence (P41594 21-1180 isoform P41594-2 limits assumed): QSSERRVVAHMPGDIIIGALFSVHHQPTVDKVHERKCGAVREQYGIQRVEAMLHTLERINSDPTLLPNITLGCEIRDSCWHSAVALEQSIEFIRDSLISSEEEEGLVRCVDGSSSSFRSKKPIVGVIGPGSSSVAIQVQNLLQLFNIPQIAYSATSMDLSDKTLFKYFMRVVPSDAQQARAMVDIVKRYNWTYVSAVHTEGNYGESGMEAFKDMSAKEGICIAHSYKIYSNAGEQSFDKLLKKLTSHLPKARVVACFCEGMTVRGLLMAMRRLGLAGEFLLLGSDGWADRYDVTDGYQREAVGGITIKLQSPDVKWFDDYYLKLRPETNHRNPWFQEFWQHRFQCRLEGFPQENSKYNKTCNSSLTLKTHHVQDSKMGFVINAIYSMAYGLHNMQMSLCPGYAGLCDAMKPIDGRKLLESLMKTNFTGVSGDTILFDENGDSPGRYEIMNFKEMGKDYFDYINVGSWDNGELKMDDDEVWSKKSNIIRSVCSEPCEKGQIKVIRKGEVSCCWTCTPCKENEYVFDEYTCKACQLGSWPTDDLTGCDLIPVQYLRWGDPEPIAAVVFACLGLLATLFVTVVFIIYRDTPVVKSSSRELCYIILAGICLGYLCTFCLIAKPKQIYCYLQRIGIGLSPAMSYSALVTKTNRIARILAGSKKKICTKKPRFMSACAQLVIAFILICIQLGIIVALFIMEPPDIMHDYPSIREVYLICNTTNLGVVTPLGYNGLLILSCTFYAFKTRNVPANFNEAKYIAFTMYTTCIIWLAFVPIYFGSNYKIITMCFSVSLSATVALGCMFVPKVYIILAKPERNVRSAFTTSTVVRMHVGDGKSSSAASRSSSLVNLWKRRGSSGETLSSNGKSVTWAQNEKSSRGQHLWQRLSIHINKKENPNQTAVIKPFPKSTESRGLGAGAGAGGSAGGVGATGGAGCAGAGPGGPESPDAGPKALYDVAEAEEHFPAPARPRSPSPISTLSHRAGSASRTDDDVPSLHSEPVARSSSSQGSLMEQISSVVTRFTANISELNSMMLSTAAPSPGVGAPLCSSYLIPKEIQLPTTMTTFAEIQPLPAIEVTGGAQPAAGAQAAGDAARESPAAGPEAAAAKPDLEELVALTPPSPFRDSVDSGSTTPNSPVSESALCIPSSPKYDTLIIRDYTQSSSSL
- EXPERIMENTAL DETAILS: Cell-based functional Ca2+ mobilization assay, potentiation of glutamate EC20 response (H10H cell-line)
- RUN PARAMETERS: H10H cell-line expressing recombinant human mGluR5; in presence of glutamate EC20; normalized to maximal glutamate response
- Protocol: Human embryonic kidney (HEK) cells transfected with rat mGluR5 were plated in clear bottom assay plates for assay in a Functional Drug Screening System (FDSS). In the alternative assay, HEK cells transfected with human mGluR5 were plated for assay in the FDSS. […] After establishment of a fluorescence baseline for about three seconds, the compounds of the present invention were added to the cells, and the response in cells was measured. […]
ATTRIBUTE MEASURED: Emax (%)
One number for each entry, in %.

// solved cases for Emax follow
COMPOUND	Emax [%]
O=C(c1n[nH]c2cccnc12)N1CCc2nc(COc3ccccc3)oc2C1 [Example B144]	39
O=C(c1cccc2c1OCCO2)N1CCc2nc(COc3ccccc3)oc2C1 [Example B99]	57
O=C(c1cccc(F)c1)N1CCc2nc(COc3cccc(F)c3)oc2C1 [Example B27]	76
CC(=O)N1CCc2nc(COc3ccccc3)oc2C1 [Example B24]	53
O=C(c1n[nH]c2ccccc12)N1CCc2nc(COc3ccccc3)oc2C1 [Example B126]	72
O=C(c1ccc(F)cc1)N1CCc2nc(COc3ccccc3)oc2C1 [Example B1]	84

Batch request: Emax per item, same order as input.
1. Cn1cncc1C(=O)N1CCc2nc(COc3ccccc3)oc2C1 [Example B158]
2. O=C(c1ccc(F)nc1)N1CCc2nc(COc3ccccc3)oc2C1 [Example B94]
3. O=C(c1ncccc1F)N1CCc2nc(COc3ccccc3)oc2C1 [Example B47]

1: 27; 2: 68; 3: 56

###

- TARGET OR TEST SYSTEM: human mGluR5 (Homo sapiens)
- EXPERIMENTAL DETAILS: Cell-based functional Ca2+ mobilization assay, potentiation of glutamate EC20 response (H10H cell-line)
- RUN PARAMETERS: H10H cell-line expressing recombinant human mGluR5; in presence of glutamate EC20; normalized to maximal glutamate response
Would you mind labelling by Emax (%)? At or over 60% is yes, under is no.

Some solved entries appear below for comparison.
COMPOUND	QUALITATIVE LABEL
N#Cc1ccc(C(=O)N2CCc3nc(COc4ccccc4)oc3C2)cc1F	no
O=C(c1nccs1)N1CCc2nc(COc3ccccc3)oc2C1	no
Cc1cc(C(=O)N2CCc3nc(COc4ccccc4)oc3C2)no1	no
N#Cc1cc(C(=O)N2CCc3nc(COc4ccccc4)oc3C2)ccn1	yes
O=C(c1cc2ccccc2[nH]1)N1CCc2nc(COc3ccccc3)oc2C1	no
O=C(c1cccc(F)c1F)N1CCc2nc(COc3cccc(F)c3)oc2C1	yes
O=C(c1ccc(F)cn1)N1CCc2nc(COc3cccc(F)c3)oc2C1	yes
O=C(c1cc[nH]n1)N1CCc2nc(COc3ccccc3)oc2C1	no
Cc1cccnc1C(=O)N1CCc2nc(COc3ccccc3)oc2C1	no
O=C(Cc1c[nH]cn1)N1CCc2nc(COc3ccccc3)oc2C1.O=C(O)C(F)(F)F	no

State whether the measured Emax (%) reaches 60%, counting equality as reaching it, for `O=C(c1cn[nH]c1)N1CCc2nc(COc3ccccc3)oc2C1`
no

Textbook exercise: given the entry `O=C(c1cnn[nH]1)N1CCc2nc(COc3ccccc3)oc2C1` , state whether its Emax (%) is greater than or equal to 60%.
no

hey, is Emax (%) for this one >= 60%? `O=C(c1ccc(F)cc1)N1CCc2nc(COc3cccc(Cl)c3)oc2C1`
yes

Please check the record `O=C(c1ccc(F)cc1)N1CCc2nc(COc3ccncc3)oc2C1` and state if its Emax (%) is at or above 60%.
yes
